Source: patent US20050042701A1

assay: 1st phase clinical test: pharmacokinetics of petasin in serum after single oral administration of tablets containing butterbur extract (open crossover; enzyme immunoassay); assay type: in vivo, human (clinically healthy men); conditions: male, human, serum, oral, 2 tablets, after administering 2 tablets; 2.167 h p.a.; read-out: Petasin serum concentration Median
quantity_measured: concentration at 2.167 h (ng/mL)
Give your result in ng/mL as a bare value.

Asked: Value lookup for concentration at 2.167 h; key = C=C(C)C1CC2(C)C(=CC1=O)CCC(OC(=O)/C(C)=C\C)C2C (stereo not shown) [petasin]
Given back: 14.5

* * *

assay: 1st phase clinical test: pharmacokinetics of petasin in serum after single oral administration of tablets containing butterbur extract (open crossover; enzyme immunoassay); format: in vivo, human (clinically healthy men); conditions: male, human, serum, oral, 4 tablets, after administering 4 tablets; 8 h p.a.; read-out: Petasin serum concentration Mean
quantity_measured: concentration at 8 h
Kindly report the value followed by its unit.

Asked: Value lookup for concentration at 8 h; key = C=C(C)C1CC2(C)C(=CC1=O)CCC(OC(=O)/C(C)=C\C)C2C (stereo not shown)
Given back: 3.9 ng/mL
